target: human Melanocortin-4 receptor (MC4R) (Homo sapiens (Human)); assay: Functional in vitro MC4R antagonist potency assay (cAMP HTRF in CHO cells); assay type: cell-based; conditions: read-out: Kb (nM) Antagonist geometric mean
Sequence (P32245 whole entry): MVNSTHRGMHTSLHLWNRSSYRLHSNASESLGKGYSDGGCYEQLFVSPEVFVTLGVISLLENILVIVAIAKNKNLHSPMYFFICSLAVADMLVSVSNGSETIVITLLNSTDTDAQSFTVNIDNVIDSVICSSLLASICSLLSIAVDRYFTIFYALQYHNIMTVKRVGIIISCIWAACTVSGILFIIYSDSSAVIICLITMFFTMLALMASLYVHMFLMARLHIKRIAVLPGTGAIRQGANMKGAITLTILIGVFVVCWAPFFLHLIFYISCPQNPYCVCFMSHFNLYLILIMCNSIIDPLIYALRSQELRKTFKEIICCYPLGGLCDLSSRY
readout type: Kb (nM)

Value of Kb reported for the compound Cc1nc2c(cc1-c1ncccn1)CC[C@@]1(CCN(C(=O)[C@H](C)c3cc(C(F)(F)F)ncc3F)C1)N2 (single isomer, unassigned) is 28

[I] COc1cc(OC)cc([C@@H](C)C(=O)N2CC[C@@]3(CCc4cc(-c5cnn(C)c5)c(C)nc4N3)C2)c1 (single isomer, unassigned)
[II] COc1cc([C@@H](C)C(=O)N2CC[C@@]3(CCc4cc(-c5cn(C(F)(F)F)c(C)n5)c(C)nc4N3)C2)c(F)cn1
Ask: // max by Kb over [ I , II ] The response must carry the label of the picked entry.
Result: II

[A] Cc1nc2c(cc1-c1ncccn1)CC[C@@]1(CCN(C(=O)[C@H](C)c3ccc(OC(F)(F)F)cc3)C1)N2 (single isomer, unassigned) [Example 48]
[B] COc1cc([C@@H](C)C(=O)N2CC[C@@]3(CCc4cc(-c5nc(C(F)(F)F)n(C)n5)c(C)nc4N3)C2)c(Cl)cn1 (single isomer, unassigned) [Example 95]
[C] Cc1nc(OC(F)F)cc([C@@H](C)C(=O)N2CC[C@@]3(CCc4cc(-c5ncccn5)c(C)nc4N3)C2)n1 (single isomer, unassigned)
Ask: # rank_down: sort by Kb, max first Lab note: final answer is the ordered label list.
Result: B, A, C

[1] COc1cc([C@@H](C)C(=O)N2CCC3(CCc4cc(-c5cnn(C)c5)c(C)nc4N3)C2)c(F)cn1 (single isomer, unassigned) [Example 16]
[2] COc1cc([C@@H](C)C(=O)N2CC[C@@]3(CCc4cc(-c5nc(C(F)(F)F)n(C)n5)c(C)nc4N3)C2)c(F)cn1 (single isomer, unassigned) [Example 92]
[3] COc1cc(OC)cc([C@@H](C)C(=O)N2CC[C@@]3(CCc4ccc(C)nc4N3)C2)c1 (single isomer, unassigned)
[4] Cc1nc2c(cc1-c1ncccn1)CC[C@@]1(CCN(C(=O)[C@H](C)c3ccc(Cl)cc3Cl)C1)N2 (single isomer, unassigned) [Example 34]
[5] COc1cc([C@@H](C)C(=O)N2CC[C@@]3(CCc4cc(-c5ncccn5)c(C)nc4N3)C2)cc(OC)n1 (single isomer, unassigned)
Ask: Please list these in order of increasing Kb. Thank you! Lab note: final answer is the ordered label list.
Result: 2, 5, 1, 4, 3

[a] COc1cc([C@@H](C)C(=O)N2CCC3(CCc4cc(-c5nnn(C)n5)c(C)nc4N3)C2)c(Cl)cn1 (single isomer, unassigned) [Example 2]
[b] Cc1nc2c(cc1-c1ncccn1)CC[C@@]1(CCN(C(=O)[C@H](C)c3cc(F)c(F)c(F)c3)C1)N2 (single isomer, unassigned) [Example 56]
Ask: Compare a and b and name the one whose reported Kb is smaller. The response must carry the label of the picked entry.
Result: b
